Provenance of the data: ChEMBL document CHEMBL5604063

# studySystem: Genome polyprotein (dengue virus type 2, UniProt P29990)
# Sequence (P29990 1346-1475 limits assumed): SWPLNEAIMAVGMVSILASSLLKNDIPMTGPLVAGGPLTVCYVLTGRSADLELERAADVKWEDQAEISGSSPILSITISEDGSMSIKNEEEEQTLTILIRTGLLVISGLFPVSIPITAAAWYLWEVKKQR
# Sequence (P29990 1476-2093 limits assumed): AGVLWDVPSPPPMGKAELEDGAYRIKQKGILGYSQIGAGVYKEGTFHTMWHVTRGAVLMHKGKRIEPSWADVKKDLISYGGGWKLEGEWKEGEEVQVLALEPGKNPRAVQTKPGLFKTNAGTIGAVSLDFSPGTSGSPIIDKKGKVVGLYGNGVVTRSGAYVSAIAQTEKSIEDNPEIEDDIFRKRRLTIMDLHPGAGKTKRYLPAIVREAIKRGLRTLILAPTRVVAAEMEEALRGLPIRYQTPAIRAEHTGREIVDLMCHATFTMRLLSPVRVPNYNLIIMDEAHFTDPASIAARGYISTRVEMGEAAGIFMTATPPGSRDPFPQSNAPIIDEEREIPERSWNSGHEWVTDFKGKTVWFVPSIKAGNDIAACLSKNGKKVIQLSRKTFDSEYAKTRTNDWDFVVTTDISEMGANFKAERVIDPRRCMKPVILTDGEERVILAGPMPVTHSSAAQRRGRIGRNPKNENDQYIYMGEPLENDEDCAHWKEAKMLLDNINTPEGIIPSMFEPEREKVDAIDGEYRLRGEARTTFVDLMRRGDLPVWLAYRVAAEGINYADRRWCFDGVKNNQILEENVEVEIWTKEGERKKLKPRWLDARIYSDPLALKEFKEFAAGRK
# Type: functional, Thailand/16681/1984
pIC50: −log10 of the molar value.
Consider the following compounds; for each one, report its pIC50.

Please review the entries below; each comes with its answer.
testsmiles=O=C(O)C[C@H](NC(=O)OCc1ccccc1)c1ccc(OCc2ccccc2)c(Br)c1 studysystem="Genome polyprotein (dengue virus type 2, UniProt P29990)" endpointresult=4.34
testsmiles=C=CC[C@H]1NCc2cc(NC(=O)c3cc(F)cc4[nH]ncc34)ccc21 studysystem="Genome polyprotein (dengue virus type 2, UniProt P29990)" endpointresult=4.41
testsmiles=CNC(=O)[C@H](Nc1cncc(C(=O)O)c1)c1cc(Cl)cc(C2CC2)c1 studysystem="Genome polyprotein (dengue virus type 2, UniProt P29990)" endpointresult="< 4.00"
testsmiles=CCc1nccn1CC(=O)Nc1ccc2c(c1)CNC2 studysystem="Genome polyprotein (dengue virus type 2, UniProt P29990)" endpointresult="< 4.00"
testsmiles=CC(C)(C)c1[nH]c2ccc(F)cc2c1Cc1ccc(-c2nnn[nH]2)cc1 studysystem="Genome polyprotein (dengue virus type 2, UniProt P29990)" endpointresult=4.92

Record pIC50 per entry; entries follow.
1. O=C(Nc1cc([C@H]2CCOC2)ccn1)c1cc(F)cc2[nH]ncc12
2. Cn1ccnc1C(=O)N1CCC([C@H](NC(=O)OCc2ccccc2)C(=O)Nc2cccc(CN)c2)CC1

1: < 4.00; 2: < 4.00
